B1: CPEB3 Ribozyme (parent)
chain: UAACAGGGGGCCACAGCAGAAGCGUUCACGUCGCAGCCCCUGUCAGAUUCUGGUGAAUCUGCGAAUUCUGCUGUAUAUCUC

variants of: B1; test: self-cleavage, relative activity (ratio to wild type); higher = more cleavage; in vitro, sequencing
1 means recorded self-cleavage is 0.3 or above; 0 means it is below 0.3.

Solved entries (count: 2):
>  <Sequence>
UAACAGGGGGCCACAGCAGAAGUGUUCACGUCGCAGCCCCUGUCAGAUUCUGGUGAAUCUGCGAAUUCUGCUGCAUAUCUC [C23U U74C]

>  <Category label>
1

$$$$
>  <Sequence>
UAACAGGGCGCCACAGCAGAAGCGUUCACGUCGAAGCCCCUGUCAGAUUCUGGUGAAUCUGCGAAUUCUGCUGUAUAUCUC [G9C C34A]

>  <Category label>
0

$$$$

Test whether the variant UAACAGGGGGCCACAGCAGAAGCGUUCACGUCGCAGACCCUGUCAGAUUCUGGUGAAUCUGCGAAUUCUGCUCUAUAUCUC [C37A G73C] records self-cleavage of 0.3 or higher.
1

Record UAUCAGGGGGCCACAGCAGAAGCGUUCACGUCGCAGCCCCUGUCAGAUUCGGGUGAAUCUGCGAAUUCUGCUGUAUAUCUC [A3U U51G] ; criterion: self-cleavage no lower than 0.3. Met?
1

Reported self-cleavage at or above 0.3? UAACAGGGGGCCACGGCAGAAGCGUUCACGUCGCAGCCCCUGUCAGAUUCUGGAGAAUCUGCGAAUUCUGCUGUAUAUCUC [A15G U54A]
1

Given the entry UAACAGGGGGCCACAGCAGAAGCGUUCACAUCGCAGCCCCUGUCAGAUUCUGGUGAAUCUGCGAAUUCAGCUGUAUAUCUC [G30A U69A] , answer whether its self-cleavage meets or surpasses 0.3.
0

Can UAAGAGGGGGCCACAGCAGAAGCGUUCACGUCGCAGCCCCUGUCAGAUUCAGGUGAAUCUGCGAAUUCUGCUGUAUAUCUC [C4G U51A] be said to have self-cleavage at or above 0.3?
1

Given UAACAGGGGUCCACAGCAGAAGCGCUCACGUCGCAGCCCCUGUCAGAUUCUGGUGAAUCUGCGAAUUCUGCUGUAUAUCUC [G10U U25C] , state whether its self-cleavage is at least 0.3.
0

In plain terms: is recorded self-cleavage at least 0.3 for UAACAGGGUGCCACAGCAGAAGCGUUCACGUCGCAGCCCCUGUCAGAUUCUGGUGAACCUGCGAAUUCUGCUGUAUAUCUC [G9U U58C] ?
0

Is reported self-cleavage greater than or equal to 0.3 here: UAACAGGGGGCCACAGCAGCAGCGUUCACGUCGCAGCCCCUGACAGAUUCUGGUGAAUCUGCGAAUUCUGCUGUAUAUCUC [A20C U43A]
1

Form field: self-cleavage at least 0.3? Entry: UAACAGGGGGCCACAGCAGAAGCGUUCACGUCGCAGCCCCUUUCAGAUUCUGGUGAAUCUGCGAACUCUGCUGUAUAUCUC [G42U U66C]
1

Kindly determine if self-cleavage recorded for UAACAGGGGGCCACAGCAGAAGCGUUCACGUCGCAGCCCCUGUCAGAAUUUGGUGAAUCUGCGAAUUCUGCUGUAUAUCUC [U48A C50U] is above or exactly 0.3.
1
